subject of test: GPIIb/IIIa (Homo sapiens, UniProt P05106+P08514)
Sequence (P08514 32-887 limits assumed): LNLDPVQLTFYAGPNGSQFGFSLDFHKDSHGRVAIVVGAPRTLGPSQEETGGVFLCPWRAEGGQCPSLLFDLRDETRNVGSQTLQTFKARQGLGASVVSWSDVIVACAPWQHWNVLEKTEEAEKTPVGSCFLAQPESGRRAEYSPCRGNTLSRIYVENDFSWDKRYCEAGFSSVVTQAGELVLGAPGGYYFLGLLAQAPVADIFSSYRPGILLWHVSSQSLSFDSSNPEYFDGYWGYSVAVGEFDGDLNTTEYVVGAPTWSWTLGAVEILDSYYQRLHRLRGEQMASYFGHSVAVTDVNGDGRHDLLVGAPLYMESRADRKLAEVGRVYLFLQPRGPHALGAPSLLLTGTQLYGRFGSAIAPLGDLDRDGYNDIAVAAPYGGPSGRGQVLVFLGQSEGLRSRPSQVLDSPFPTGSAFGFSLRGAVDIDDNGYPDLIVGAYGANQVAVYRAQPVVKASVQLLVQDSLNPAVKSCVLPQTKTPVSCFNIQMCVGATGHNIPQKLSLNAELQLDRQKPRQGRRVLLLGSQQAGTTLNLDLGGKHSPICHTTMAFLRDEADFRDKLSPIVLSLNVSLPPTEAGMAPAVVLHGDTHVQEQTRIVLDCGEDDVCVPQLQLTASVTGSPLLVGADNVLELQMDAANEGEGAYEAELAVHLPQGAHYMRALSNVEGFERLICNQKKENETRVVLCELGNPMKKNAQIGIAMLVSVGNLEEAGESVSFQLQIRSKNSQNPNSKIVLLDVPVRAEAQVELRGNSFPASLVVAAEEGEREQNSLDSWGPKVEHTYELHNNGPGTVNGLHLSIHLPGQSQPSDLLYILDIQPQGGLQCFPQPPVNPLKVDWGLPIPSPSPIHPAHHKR
Sequence (P08514 891-1039 partner limits assumed): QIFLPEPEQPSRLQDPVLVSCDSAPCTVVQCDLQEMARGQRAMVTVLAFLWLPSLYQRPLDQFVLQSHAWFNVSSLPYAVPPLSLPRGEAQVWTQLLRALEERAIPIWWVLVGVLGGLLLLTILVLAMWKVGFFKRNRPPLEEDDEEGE
Sequence (P05106 27-788): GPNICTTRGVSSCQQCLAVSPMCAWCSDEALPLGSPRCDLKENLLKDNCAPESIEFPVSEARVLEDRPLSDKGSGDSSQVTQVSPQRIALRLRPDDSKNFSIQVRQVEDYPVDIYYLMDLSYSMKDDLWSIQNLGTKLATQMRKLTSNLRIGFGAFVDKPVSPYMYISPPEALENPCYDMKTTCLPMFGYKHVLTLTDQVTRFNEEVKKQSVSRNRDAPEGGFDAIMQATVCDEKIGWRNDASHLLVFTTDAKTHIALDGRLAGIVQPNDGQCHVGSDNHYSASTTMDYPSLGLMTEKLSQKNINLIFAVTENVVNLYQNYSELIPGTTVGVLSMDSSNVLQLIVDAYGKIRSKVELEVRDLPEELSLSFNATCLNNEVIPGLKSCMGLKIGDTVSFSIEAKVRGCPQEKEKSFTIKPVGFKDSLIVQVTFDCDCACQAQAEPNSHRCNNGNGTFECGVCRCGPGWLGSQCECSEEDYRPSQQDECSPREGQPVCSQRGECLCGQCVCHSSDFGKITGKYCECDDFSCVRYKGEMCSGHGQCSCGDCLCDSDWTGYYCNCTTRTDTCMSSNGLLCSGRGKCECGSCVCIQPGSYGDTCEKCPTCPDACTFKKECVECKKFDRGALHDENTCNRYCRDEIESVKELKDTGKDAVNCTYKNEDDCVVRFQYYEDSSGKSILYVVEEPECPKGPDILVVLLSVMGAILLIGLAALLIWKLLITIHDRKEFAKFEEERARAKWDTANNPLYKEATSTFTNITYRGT
assay procedure: In vitro solid phase purified glycoprotein IIb/IIIa binding assay (biotinylated fibrinogen binding)
experimental setup: read-out: Fibrinogen Binding % Inh. (50 µM)
Parameter inhibition at 50 µM: see the listing below.

{"columns": ["molecule", "subject of test", "unit string", "inhibition at 50 µM"],
 "data": [
  ["O=C(N[C@@H](CNC(=O)[C@@H]1CCCN(C(=O)CCC2CCNCC2)C1)C(=O)O)OCc1cccc(Cl)c1 [Compound 24]", "GPIIb/IIIa (Homo sapiens, UniProt P05106+P08514)", "%", 100],
  ["Cc1ccc(C(CC(=O)O)NC(=O)C2CCN(C(=O)CCC3CCNCC3)C2)cc1 (stereo not shown) [Compound 4]", "GPIIb/IIIa (Homo sapiens, UniProt P05106+P08514)", "%", 89.9],
  ["O=C(NC[C@H](NS(=O)(=O)Cc1ccccc1)C(=O)O)[C@@H]1CCCN(C(=O)CCC2CCNCC2)C1 [Compound 25]", "GPIIb/IIIa (Homo sapiens, UniProt P05106+P08514)", "%", 100],
  ["CC(CC(=O)O)NC(=O)C1CCN(C(=O)CCC2CCNCC2)CC1 (stereo not shown) [Compound 5]", "GPIIb/IIIa (Homo sapiens, UniProt P05106+P08514)", "%", 89],
  ["O=C(NCCc1ccccc1)N[C@@H](CNC(=O)[C@@H]1CCCN(C(=O)CCC2CCNCC2)C1)C(=O)O [Compound 30]", "GPIIb/IIIa (Homo sapiens, UniProt P05106+P08514)", "%", 100],
  ["O=C(NC[C@@H]1NC(=O)N(Cc2ccccc2)C1=O)[C@@H]1CCCN(C(=O)CCC2CCNCC2)C1 [Compound 29]", "GPIIb/IIIa (Homo sapiens, UniProt P05106+P08514)", "%", 100],
  ["O=C(O)C(O)CNC(=O)[C@@H]1CCCN(C(=O)CCC2CCNCC2)C1 (single isomer, unassigned) [Compound 11]", "GPIIb/IIIa (Homo sapiens, UniProt P05106+P08514)", "%", 79.6]
]}
